Measurement Target: T1, murine GPC3-his protein (murine, UniProt Q8CFZ4 25-558, limits assumed)
T1 construct: Bought protein; also called mouse GPC3 protein; murine GPC3 protein; not shown: His tag
T1 sequence (Q8CFZ4 25-558 limits assumed): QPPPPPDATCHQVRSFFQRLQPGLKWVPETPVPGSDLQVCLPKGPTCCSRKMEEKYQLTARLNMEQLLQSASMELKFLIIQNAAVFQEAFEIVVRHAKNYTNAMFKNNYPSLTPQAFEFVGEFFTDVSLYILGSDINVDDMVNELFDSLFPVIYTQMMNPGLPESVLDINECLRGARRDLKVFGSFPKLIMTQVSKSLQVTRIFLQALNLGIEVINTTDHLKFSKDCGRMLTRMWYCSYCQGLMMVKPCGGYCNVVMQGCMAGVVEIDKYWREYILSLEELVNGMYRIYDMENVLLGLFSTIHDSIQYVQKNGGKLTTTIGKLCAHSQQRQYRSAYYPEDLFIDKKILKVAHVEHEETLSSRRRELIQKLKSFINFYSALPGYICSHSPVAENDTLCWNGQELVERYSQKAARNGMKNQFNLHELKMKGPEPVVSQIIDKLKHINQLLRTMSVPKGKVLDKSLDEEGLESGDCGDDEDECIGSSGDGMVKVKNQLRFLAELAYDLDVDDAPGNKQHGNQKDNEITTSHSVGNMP
Assay Text: ELISA, murine GPC3-his coated; antibody 0.53 nM
Measured OD450 nm by item
Reply: number alone, nothing else.

Examples from the recorded data:
- Binder: "hAb001H2L1a (antibody, human IgG1, V domains shown, Humanized F2.169.2, H2+L1a) VH: EVQLVESGGGLVQPGGSLRLSCAASGFSFNTNAMNWVRQAPGKGLEWVGRIRSKSNNYATYYADSVKDRFTISRDDSKSSLYLQMNSLKTEDTAVYYCVRDGYYVLFAYWGQGTLVTVSS VL: DIVMTQTPLSLPVTPGEPASISCRFSQSIVNSDGNTYLEWFLQKPGQSPQLLIYKVSNRFSGVPDRFSGSGSGTDFTLKISRVEAEDVGVYYCFQGSHVPFTFGQGTKLEIK"
  Obs Value: 2.19
- Binder: "hAb001H2L1 (antibody, human IgG1, V domains shown, Humanized F2.169.2, H2+L1) VH: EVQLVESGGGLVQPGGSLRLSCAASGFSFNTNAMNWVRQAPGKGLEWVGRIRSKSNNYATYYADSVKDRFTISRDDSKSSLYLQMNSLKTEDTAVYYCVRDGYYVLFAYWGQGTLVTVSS VL: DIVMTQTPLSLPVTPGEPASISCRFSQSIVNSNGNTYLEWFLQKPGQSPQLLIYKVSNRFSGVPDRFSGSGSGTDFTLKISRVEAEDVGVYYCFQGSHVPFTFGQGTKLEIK"
  Obs Value: 2.48
- Binder: "hAb001H1aL1 (antibody, human IgG1, V domains shown, Humanized F2.169.2, H1a+L1) VH: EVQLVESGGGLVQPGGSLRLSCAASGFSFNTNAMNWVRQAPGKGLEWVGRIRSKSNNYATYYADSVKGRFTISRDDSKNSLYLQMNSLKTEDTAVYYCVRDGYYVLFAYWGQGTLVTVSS VL: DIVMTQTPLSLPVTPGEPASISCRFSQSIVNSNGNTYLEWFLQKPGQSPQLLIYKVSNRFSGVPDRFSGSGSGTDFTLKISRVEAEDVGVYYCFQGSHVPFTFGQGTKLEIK"
  Obs Value: 2.45
- Binder: "hAb001H1L1a (antibody, human IgG1, V domains shown, Humanized F2.169.2, H1+L1a) VH: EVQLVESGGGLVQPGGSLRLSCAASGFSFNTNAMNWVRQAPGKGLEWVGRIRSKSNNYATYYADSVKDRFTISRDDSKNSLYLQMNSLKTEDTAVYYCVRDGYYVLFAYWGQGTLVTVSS VL: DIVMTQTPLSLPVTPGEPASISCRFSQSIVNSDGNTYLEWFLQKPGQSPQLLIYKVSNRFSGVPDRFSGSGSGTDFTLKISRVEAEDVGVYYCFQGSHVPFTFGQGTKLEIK"
  Obs Value: 2.37

We next turn to a different binder, shown below.
The binder listed as hAb001H2L1b (antibody, human IgG1, V domains shown, Humanized F2.169.2, H2+L1b) VH: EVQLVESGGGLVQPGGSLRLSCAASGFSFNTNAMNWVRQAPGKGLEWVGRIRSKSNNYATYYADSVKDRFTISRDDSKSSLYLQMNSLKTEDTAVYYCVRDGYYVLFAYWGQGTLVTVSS VL: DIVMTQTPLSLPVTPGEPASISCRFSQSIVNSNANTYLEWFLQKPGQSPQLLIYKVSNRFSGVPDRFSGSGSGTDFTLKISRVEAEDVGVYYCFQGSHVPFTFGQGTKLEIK shows OD450 nm equal to 2.38
